system: HCT-15; test: NCI tumour cell line growth inhibition, 48 h
# GI50 per entry
Write the number in µM without appending the unit.

Q: Please give the documented GI50 of C=CCSc1ncnc2c1ncn2C1OC(CO)C(O)C1O (centres undefined)
A: 7.94

Q: Please give the documented GI50 of `CC(=O)O[C@@H]1C[C@@]2(C)[C@@H]3CC=C4[C@@H](C[C@H](O)C(=O)C4(C)C)[C@]3(C)C(=O)C[C@]2(C)[C@H]1[C@@](C)(O)C(=O)/C=C/C(C)(C)OC(C)=O`
A: 0.875

Q: Please give the documented GI50 of CN(C)C(=O)OC1C(=O)N(C)c2ccc(Cl)cc2C2(c3ccccc3)N1C2(Cl)Cl (centres undefined)
A: 60.4

Q: Please give the documented GI50 of `O=c1/c(=C/c2ccc(-c3ccc(Cl)cc3Cl)o2)sc2n1[C@@H](c1ccc(Cl)cc1)C=C(c1cc(F)c(Cl)cc1Cl)N=2`
A: 35.6
